inhibition at 110 µM values, listed per item
# Tested on: C. elegans
# assay summary: microbe, parasite or virus in culture
# measurement context: Caenorhabditis elegans, 0 h, read-out: Percentage of motility inhibition 0 h, Table S2, C. elegans SS assay, 110 μM, 0 h, averages of 4 data points
Give just the number in %; leave the unit off.

smiles input	unit abbrev	inhibition at 110 µM
O=c1[nH]c2ccccc2o1	%	24
C=C(CC[C@@H](C(=O)O)[C@H]1[C@H](O)C[C@@]2(C)C3=C(CC[C@]12C)[C@@]1(C)CC[C@H](OC(C)=O)C(C)(C)[C@@H]1CC3)C(C)C	%	45
O=c1c(O[C@@H]2OC[C@@H](O)[C@H](O)[C@H]2O)c(-c2ccc(O)c(O)c2)oc2cc(O)cc(O)c12	%	0

Consider the record given below.
Task: Param item = O=c1cc(-c2ccccc2)oc2c(O)c(O)cc(O)c12 ; retrieve measured inhibition at 110 µM.
Output: 0

---

Each entry below carries its reported Percentage of motility inhibition 0 h.
# Test system: C. elegans
# measurement context: Table S2, C. elegans SS assay, 110 μM, 0 h, averages of 4 data points
Output should be the measured figure followed by the unit it is expressed in.

Worked set:
molecule	experimental result
C=C(CCC=C(C)C)[C@H]1CC[C@]2(C)[C@@H]1[C@H](O)C[C@@H]1[C@@]3(C)CC[C@H](O)C(C)(C)[C@@H]3[C@@H](O[C@@H]3O[C@H](CO)[C@@H](O)[C@H](O)[C@H]3O[C@@H]3O[C@@H](C)[C@H](O)[C@@H](O)[C@H]3O)C[C@]12C [Ginsenoside Rg6]	1%
CC(C)(CO)[C@@H](O)C(=O)NCCC(=O)[O-].[Na+] [D-Pantothenic acid (sodium)]	1%
CC1(C)CC[C@]23CO[C@@]4(C=C[C@@H]5[C@@]6(C)CC[C@H](O)[C@@](C)(CO)[C@@H]6CC[C@@]5(C)[C@]4(C)C[C@@H]2O)[C@@H]3C1 [Saikogenin F]	53%
C[N+](C)(C)[C@@H](Cc1c[nH]c(=S)[nH]1)C(=O)[O-] [Ergothioneine]	16%
CC[C@@]1(O)C(=O)OCc2c1cc1n(c2=O)Cc2cc3cc(OC)ccc3nc2-1 [10‐Methoxycamptothecin]	0%

Turning now to a further record.
Task: So what's the measured Percentage of motility inhibition 0 h for this one? C=C(C)[C@@H]1CC=C(CO)CC1 [Perillyl alcohol]
Output: 0%

---

# System: C. elegans
# measurement context: Table S2, C. elegans SS assay, 110 μM, 0 h, averages of 4 data points
Overview of reported Percentage of motility inhibition 0 h across a group of molecules:
# unit: % | format: bare number

These solved cases illustrate the format of a correct answer.
molecule	experimental result
COC(=O)C1=CO[C@@H](C)[C@@H]2CN3CC[C@@]4(C(=O)Nc5ccccc54)[C@@H]3C[C@H]12 [Isopteropodine]	9
C[C@@H]1O[C@@H](O[C@@H]2[C@H](O)[C@@H](O)[C@H](O[C@H]3CC[C@@]4(C)C(CC[C@]5(C)C4C=C[C@]46OC[C@@]7(CCC(C)(C)CC74)[C@@H](O)C[C@]65C)C3(C)C)O[C@@H]2CO[C@@H]2O[C@H](CO)[C@@H](O)[C@H](O)[C@H]2O)[C@H](O)[C@H](O)[C@H]1O (some centres unmarked) [Saikosaponin C]	24
O=c1cccc2n1C[C@H]1C[C@@H]2CN2CCCC[C@@H]12 [Thermopsine]	0

Task: Quick one: Percentage of motility inhibition 0 h for COc1cc2c(=O)c(-c3ccc(O)cc3)coc2cc1O[C@@H]1O[C@H](CO)[C@@H](O)[C@H](O)[C@H]1O [Glycitin] ?
Output: 30

Task: // lookup Percentage of motility inhibition 0 h for CCC(C)(C)C(=O)OC1=C(c2ccc(Cl)cc2Cl)C(=O)OC12CCCCC2 [Spirodiclofen]
Output: 5

Task: Can you look up the measured Percentage of motility inhibition 0 h of C/C1=C2/[N-][C@H]([C@H](CC(N)=O)[C@@]2(C)CCC(=O)NC[C@@H](C)OP(=O)([O-])O[C@H]2[C@@H](O)[C@@H](n3cnc4cc(C)c(C)cc43)O[C@@H]2CO)[C@]2(C)N=C(/C(C)=C3N=C(/C=C4N=C1[C@@H](CCC(N)=O)C\4(C)C)[C@@H](CCC(N)=O)[C@]\3(C)CC(N)=O)[C@@H](CCC(N)=O)[C@]2(C)CC(N)=O.[CH2-][C@H]1O[C@@H](n2cnc3c(N)ncnc32)[C@H](O)[C@@H]1O.[Co] [Adenosylcobalamin] for me?
Output: 20

Task: Any idea what its Percentage of motility inhibition 0 h is? The molecule is CC(C)(CO)[C@@H](O)C(=O)NCCC(=O)[O-].CC(C)(CO)[C@@H](O)C(=O)NCCC(=O)[O-].[Ca+2] [D-Pantothenic acid (hemicalcium salt)]
Output: 48

Task: Given the entry O=C1CC[C@H](NC(=O)Cc2ccccc2)C(=O)N1 [Antineoplaston A10] , report its measured Percentage of motility inhibition 0 h.
Output: 0
